Provenance of the data: ChEMBL document CHEMBL1158069

Test system: Plasmodium falciparum
ASSAY INFO: Antiplasmodial activity against chloroquine-resistant Plasmodium falciparum W2 as parasite DNA microfluorimetric assay
Assay type: functional, organism-based
READOUT KIND: IC50 (µM)
Entry rule: numbers only, all in µM.

IN: Return reported IC50; argument: CC/C=C\C/C=C\C/C=C\CCCC(=O)NCCc1ccc(O)cc1
OUT: 38

IN: Return reported IC50; argument: C=C[C@H]1CC[C@H]2[C@@H]3CC=C4C[C@@H](O[C@@H]5OC[C@@H](O)[C@@H](OC(C)=O)[C@@H]5O)CC[C@]4(C)[C@H]3CC[C@]12C
OUT: 67

* * *

Assign pIC50 to each entry below.
Test system: Trypanosoma cruzi
ASSAY INFO: Antitrypanosomal activity against Trypanosoma cruzi Tulahuen C4 infected in african green monkey Vero cells assessed as growth inhibition of […] by beta-galactosidase reporter gene assay
Assay type: functional, organism-based
Kindly note that pIC50 refers to -log10 of the concentration in mol/L and answer with the value alone.

IN: Return reported pIC50; argument: C=C[C@]1(C)Cc2occ(C)c2C[C@H]1C(=C)OC(C)=O
OUT: 3.76

IN: Return reported pIC50; argument: C=C[C@H]1CC[C@H]2[C@@H]3CC=C4C[C@@H](O[C@@H]5OC[C@@H](O)[C@@H](OC(C)=O)[C@@H]5O)CC[C@]4(C)[C@H]3CC[C@]12C
OUT: 4.02
